Taken from ChEMBL document CHEMBL1201862.

System: Hs-578T
Experiment: NCI tumour cell line growth inhibition, 48 h
Calls of active or inactive are those of the source. No stated cut-off is given here; in the data, active = GI50 up to about 1.1 µM and inactive = higher.

# compound, system.name, GI50
measured = [
    ("Oc1nc2cc3nc(O)c(O)nc3cc2nc1O", "Hs-578T", "> 100 µM (inactive)"),
    ("CC(C)Cc1cc2c(cc1O)CCC1C2CC[C@@]2(C)C1CC[C@@H]2O (some centres undefined)", "Hs-578T", "6.19 µM (inactive)"),
    ("C=C(C)C1CC2(C)C(C)CC(O)CC2C(OC(=O)C=C(C)C)C1O (centres undefined)", "Hs-578T", "27.1 µM (inactive)"),
    ("COc1cc(/C=C/C(=O)N[C@@H]2C(=O)N3[C@@H]2SC(C)(C)[C@@H]3C(=O)O)cc(OC)c1OC", "Hs-578T", "> 100 µM (inactive)"),
    ("O=C(c1ccc(Cl)cc1)N1CCN=C1c1cc2ccccc2c2ccccc12", "Hs-578T", "17.5 µM (inactive)"),
    ("O=C1c2c(nc3ccccc3c2-c2ccccc2)CN1Nc1ccccn1", "Hs-578T", "21.2 µM (inactive)"),
    ("O=C1/C(=C/c2cccc(O)c2)COc2ccccc21", "Hs-578T", "9.77 µM (inactive)"),
    ("Cc1ccc2c(c1)C(=O)/C(=N/Nc1ccc(Cl)cc1)CCO2", "Hs-578T", "35.4 µM (inactive)"),
    ("Cc1csc2c(=O)n(C3OC(CO)C(O)C3O)c(=O)[nH]c12 (centres undefined)", "Hs-578T", "> 100 µM (inactive)"),
]

---

System: SK-MEL-5
Test: NCI tumour cell line growth inhibition, 48 h
Active and inactive are the calls of the source. No stated cut-off is given here; in the data, active = GI50 up to about 1.1 µM and inactive = higher.
Possible outcomes: 1 for active, 0 for inactive

# molecule, label.value
data = [
    ("CCCCCCCCCCCCCC(=O)NCO", 0),
    ("CC1CC/C(=C\\c2ccc(Cl)cc2)c2nc(N)c(C#N)c(-c3ccc(Cl)cc3)c21 (stereo unspecified)", 0),
    ("Nc1ccc2c(c1)C(=O)N(OS(=O)(=O)c1ccccc1)C2=O", 0),
    ("COC(=O)C(Br)C1CCc2ccccc21 (stereo unspecified)", 0),
    ("COc1cc(/C=C/C(=O)N[C@@H]2C(=O)N3[C@@H]2SC(C)(C)[C@@H]3C(=O)O)cc(OC)c1OC", 0),
    ("N#CNc1nc(C(=O)Nc2ccc(Cl)cc2)cc(-c2ccccc2)n1", 0),
    ("O=C1/C(=C/c2ccccc2)CCC/C1=C\\c1ccc(O)c(CN2CCCCC2)c1", 0),
    ("COc1ccc2nc3ccccc3c(NCCCCCCN(CCCl)CCCl)c2c1", 1),
    ("Nc1[nH]nc2ccccc12", 0),
    ("CCOC(=O)C1CCC(=O)N1C(=O)c1cccc(Cl)c1 (stereo unspecified)", 0),
    ("N#CCCN(CCC#N)c1ccc(/C=C2\\N=C(c3cc([N+](=O)[O-])ccc3Cl)OC2=O)cc1", 0),
]

---

Tested on: HOP-18
Experiment: NCI tumour cell line growth inhibition, 48 h
Calls of active or inactive are those of the source. Cut-off read from the data, not from the text of the source: active = GI50 up to about 1.1 µM and inactive = higher.
Possible outcomes: TRUE for active, FALSE for inactive

# compound, label.value
records = [
    ("COc1cc(C(C#N)NNC(=O)Cc2ccccc2)cc(OC)c1OC (stereo not given)", "FALSE"),
    ("CCOC(=O)/N=c1/nc(N(C)C)ss1", "FALSE"),
    ("C=CC/N=C1\\N=C(C)C(C(=O)OCC)S1 (stereo not given)", "FALSE"),
    ("C/C(=N\\NC(=S)N1CC2CCC(CC2)C1)c1nccs1", "TRUE"),
    ("NC1C=NNC1=O (stereo not given)", "TRUE"),
    ("COc1cc(O)c2c(c1O)C(=O)c1cc(C)ncc1C2=O", "FALSE"),
    ("COC(=O)C1CCc2nnc(-c3cccnc3)n21 (stereo not given)", "FALSE"),
    ("CC(=O)Nc1ccc(S(=O)(=O)N/N=C(\\C)CN2C(=O)c3ccccc3C2=O)cc1", "FALSE"),
    ("COc1ccc(/C(=N\\NC(=O)C(N)=O)C(c2ccc(OC)cc2)C2(O)C(=O)Nc3c(Cl)cccc32)cc1 (stereo not given)", "FALSE"),
    ("Cc1ccc(NC(=O)CCCC(=O)CC(=O)c2ccc(Br)cc2)cc1", "FALSE"),
    ("CC1=CP(=O)(OC(C)C)C=C(C)C1=C(Cl)Cl (stereo not given)", "FALSE"),
    ("CC(C)(c1ccc(Oc2ccc(C#N)c(C#N)c2)cc1)c1ccc(Oc2ccc(C#N)c(C#N)c2)cc1", "FALSE"),
    ("CN(Cc1ccccc1)C1(N(C)Cc2ccccc2)CC1", "FALSE"),
    ("COc1ccccc1-n1c(C)nc2ccccc2c1=O", "FALSE"),
    ("CN1CC[C@@H](c2c(O)cc(O)c3c(=O)cc(-c4ccccc4Cl)oc23)[C@@H](O)C1", "TRUE"),
    ("COC12C=CC(CC1)c1c(O)ccc(O)c12 (stereo not given)", "FALSE"),
    ("COc1cc2nc(-c3cccc(N(C)C)c3)cc(O)c2cc1OC", "FALSE"),
    ("COC(=O)C1=CCON(c2ccccc2)C1c1ccccc1 (stereo not given)", "FALSE"),
    ("C=CCc1ccc(Oc2cc(CC=C)c3c(c2O)O[C@@H](CO)[C@H]3c2ccc(O)c(-c3cc(CC=C)ccc3O)c2)cc1", "FALSE"),
    ("COc1ccc(N2C(=O)C3c4[nH]c5ccccc5c4C4CC(C)(C)CC(C)(C)C4C3C2=O)cc1 (stereo not given)", "FALSE"),
]

---

System: EKVX
Test: NCI tumour cell line growth inhibition, 48 h
Activity calls are given as the source filed them. Rule as the data show it: active = GI50 up to about 1.1 µM and inactive = higher.

# compound, GI50
records = [
    ("COc1ccc(/C(=N\\NC(=O)C(N)=O)C(c2ccc(OC)cc2)C2(O)C(=O)Nc3c(Cl)cccc32)cc1 (stereo unspecified)", "> 100 µM (inactive)"),
    ("O=C(c1ccc(Cl)cc1)N1CCN=C1c1cc2ccccc2c2ccccc12", "13.8 µM (inactive)"),
    ("CC(C)(C)CI", "61.5 µM (inactive)"),
    ("CC1=CC(=O)/C(=C/NC(=S)Nc2ccccc2)C(=O)O1", "> 100 µM (inactive)"),
    ("COC(=O)c1c(O)ccc2c1c1c(n2-c2ccc(OC)cc2)C(=O)c2ccccc2C1=O", "16.6 µM (inactive)"),
    ("COc1cc2c3c(n(C)c(=O)c2cc1OC)-c1cc2c(cc1/C3=C/CCCCBr)OCO2", "> 100 µM (inactive)"),
]

---

Tested on: HT-29
Assay: NCI tumour cell line growth inhibition, 48 h
Activity calls are given as the source filed them. Rule as the data show it: active = GI50 up to about 1.1 µM and inactive = higher. Peptide text beside a SMILES is read from it. * marks the point of attachment. Boc = CC(C)(C)OC(=O)*; OBn = c1ccc(CO*)cc1
Classes used: active, inactive

# molecule, label.value
records = [
    ("O=C1/C(=C/c2ccccc2)CCC/C1=C\\c1ccc(O)c(CN2CCCCC2)c1", "inactive"),
    ("NC(=S)N/N=C/c1nccc2ccccc12", "active"),
    ("N#CCC(=O)Nc1cccc(C(F)(F)F)c1", "inactive"),
    ("CCCn1c(CN(Cc2nc3ccccc3n2CCC)Cc2nc3ccccc3n2CCC)nc2ccccc21", "inactive"),
    ("C=CCN1C(N)=C(C(N)=O)S/C1=C1/SC(=S)N(c2ccc(C)cc2)C1=O", "inactive"),
    ("Cc1nn(C(=O)c2ccccc2O)c2c1C(c1ccc([N+](=O)[O-])cc1)SC(=N)N2 (configuration not stated)", "inactive"),
    ("O=C(CN1CCCC1=O)CS(=O)(=O)c1ccccc1", "inactive"),
    ("CC(C)CC(NC(=O)OC(C)(C)C)C(=O)NC(CC(=O)OCc1ccccc1)C(N)=O (stereo not drawn) (Boc-Leu-Asp(OBn)-NH2; configuration not given here)", "inactive"),
    ("Cc1cc(N2CCN(C)CC2)n2nc(-c3ccc(Cl)cc3)nc2n1", "inactive"),
    ("Brc1ccc(C[P+]2(c3ccccc3)CCCCC2)cc1.[O-][Cl+3]([O-])([O-])[O-]", "inactive"),
    ("Cn1cc(C(=O)/C(Cl)=C(\\Cl)C(=O)O)c2ccccc21", "inactive"),
    ("Cc1ccc(NC(=O)CC/C(CC(=O)c2ccc(F)cc2)=N\\NC(=O)C(=O)NN)cc1C", "inactive"),
    ("CC(C)Cc1cc2c(cc1O)CCC1C2CC[C@@]2(C)C1CC[C@@H]2O (some centres not stated)", "inactive"),
    ("C=CC/N=C1\\N=C(C)C(C(=O)OCC)S1 (configuration not stated)", "inactive"),
    ("COc1ccc(N2C(=O)CC(=O)N(NC(=O)C(C)Oc3ccccc3C)C2=S)cc1 (configuration not stated)", "inactive"),
    ("NC1=Nc2ccccc2Sc2nnc(-c3ccc(Cl)cc3)n21", "inactive"),
    ("CON(C)C(=O)C(C)NC(=O)OCc1ccccc1 (configuration not stated)", "inactive"),
    ("CC1CC/C(=C\\c2ccc(Cl)cc2)c2nc(N)c(C#N)c(-c3ccc(Cl)cc3)c21 (configuration not stated)", "inactive"),
    ("c1ccc([P+](CCCCCC[P+](c2ccccc2)(c2ccccc2)c2ccccc2)(c2ccccc2)c2ccccc2)cc1", "inactive"),
    ("O=C1OC(CS(=O)(=O)c2ccccc2)CC1O (configuration not stated)", "inactive"),
    ("CN(C)CCCCN1c2ccccc2Sc2cc(N=[N+]=[N-])ccc21", "inactive"),
    ("Cc1ccc(/C=C2\\CN(C)CC3C(c4ccc(C)cc4)=C(C#N)C(=O)NC23)cc1 (configuration not stated)", "inactive"),
    ("CCOC(=O)COc1ccc(OCC(=O)OCC)c2c1C(=O)CCCC2=O", "inactive"),
    ("C#CC(O)/C=C/C(O)CCCC(O)CC#CC(O)C#CC(O)CCCC(O)/C=C/CCCC(=O)CCCCCCCCCCCCCCCC(O)C(O)C#CC(=O)O (configuration not stated)", "inactive"),
    ("O=C1/C(=N\\NC(=S)NC2CCCCC2)c2cc([N+](=O)[O-])ccc2N1CN1CCOCC1", "inactive"),
    ("C[N+]12C=CC=C1C(N1CCCC1)c1scc(-c3ccc(Br)cc3)c12 (configuration not stated)", "inactive"),
    ("O=[N+]([O-])c1ccc(Sc2c3ccccc3nc3ccccc23)nc1", "inactive"),
]
